# Assay Details: decreased DLD-1 cellular survival, CellTiter-Glo luminescent readout, NPC compound collection, primary HTS (AID 1117346)
# Assay Conditions: DLD-1 viability, CellTiter-Glo luminescence; at 20 µM (top of the series)
Activity calls are given as the source filed them.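 The calls were made as follows: active = compounds that lower survival of DLD-1 colon cancer cells in the luminescence readout, no cutoff given; inactive = the rest.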

# Molecule, viability decrease (inhibition)
measured = [
    ("NC1[C@H]2CN(c3nc4c(cc3F)c(=O)c(C(=O)O)cn4-c3ccc(F)cc3F)C[C@@H]12 (stereo partly drawn)", "58.6% (active)"),
    ("CCn1cc(C(=O)O)c(=O)c2ccc(C)nc21", "-0.43% (inactive)"),
    ("FC(F)(F)C(F)(F)C(F)(F)C(F)(F)C(F)(F)C(F)(F)C(F)(F)C(F)(F)Br", "7.2% (inactive)"),
]

---

Reported glutamate uptake change is given for each of the following compounds.
# Assay Details: enhancers of glutamate uptake in motor neurons, MN-1 cell line (AID 1612);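 also: tested at 1 µM final; 0% = mean of DMSO vehicle wells on each plate; positive means more glutamate uptake than control and negative means less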
# Assay Conditions: MN-1 motor neuron cells, stronger effect = higher value
Measure Name: glutamate uptake change (%)

# Compound, U, Endpoint Value
data = [
    ("CC(C)(C)NCC(O)c1ccc(O)c(CO)c1 (centres undefined)", "%", -8.12),
    ("CC(=O)OCC(=O)[C@@]1(O)CCC2C3CCC4=CC(=O)CC[C@]4(C)C3[C@@H](O)C[C@@]21C (some centres undefined)", "%", 16.2),
    ("CC(=O)Nc1ccc(OC(=O)c2ccccc2O)cc1", "%", 0.86),
    ("N=c1nc(N2CCCCC2)cc(N)n1O", "%", 7.03),
    ("CC1=C(/C=C/C(C)=C/C=C/C(C)=C/C=C/C=C(C)/C=C/C=C(C)/C=C/C2=C(C)CCCC2(C)C)C(C)(C)CCC1", "%", -16.2),
    ("O=C(O)C1=CCNCC1", "%", 8.29),
    ("CCOC(=O)CCC(=O)O[C@H]1[C@H](O[C@@H]2[C@@H](C)[C@H](O[C@H]3C[C@@](C)(OC)[C@@H](O)[C@H](C)O3)[C@@H](C)C(=O)O[C@H](CC)[C@@](C)(O)[C@H](O)[C@@H](C)C(=O)[C@H](C)C[C@@]2(C)O)O[C@H](C)C[C@@H]1N(C)C", "%", -6.79),
    ("CC(CN(C)C)CN1c2ccccc2Sc2ccccc21 (centres undefined)", "%", -15.4),
    ("CC(=O)NC(Cc1ccccc1)C(=O)O (centres undefined)", "%", 12.1),
    ("CC(CCc1ccccc1)NCC(O)c1ccc(O)c(C(N)=O)c1 (centres undefined)", "%", -2.28),
    ("CCC(c1ccc(O)cc1)C(CC)c1ccc(O)cc1 (centres undefined)", "%", -7.89),
    ("CN(C)CCC(c1ccc(Cl)cc1)c1ccccn1 (centres undefined)", "%", -7.91),
    ("CC(C)OC(=O)C(C)(C)Oc1ccc(C(=O)c2ccc(Cl)cc2)cc1", "%", -24.1),
    ("Cn1c(=O)[nH]c2ncn(C)c2c1=O", "%", 1.28),
]

---

# Assay Details: ovarian cancer cell viability with rucaparib, profiling panel, oncology-focused library, rucaparib conditional (AID 1508598)
# Assay Conditions: patient-derived ovarian cancer cells, CellTiter-Glo viability, 144 h; at 0.313 µM; OCI-C5x cells; without rucaparib; stronger effect = lower value
Active and inactive are the calls of the source.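 How the source made its calls: active means normalized viability below 100% at a tested concentration; inactive means the rest.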
Reported viability is given for each of the following compounds.
Measure Name: viability

# Compound, Measure Name, Endpoint Value
data = [
    ("COc1cc(Nc2c(C#N)cnc3cc(OCCCN4CCN(C)CC4)c(OC)cc23)c(Cl)cc1Cl", "viability", "101% (inactive)"),
    ("CCN(CC)CCNC(=O)c1c(C)[nH]c(/C=C2\\C(=O)Nc3ccc(F)cc32)c1C", "viability", "113% (inactive)"),
    ("O=c1[nH]c(=O)n([C@H]2CCCO2)cc1F", "viability", "24.1% (active)"),
    ("CNC(=O)c1ccccc1Sc1ccc2c(/C=C/c3ccccn3)n[nH]c2c1", "viability", "97.7% (active)"),
    ("O=C(CCCCCCC(=O)Nc1ccccc1)NO", "viability", "57.4% (active)"),
    ("CCCC(CCC)C(=O)O", "viability", "115% (inactive)"),
    ("Cc1cc(O)c2c(c1)C(=O)c1cccc(O)c1C2=O", "viability", "104% (inactive)"),
    ("Clc1ccc(Nc2nnc(Cc3ccncc3)c3ccccc23)cc1", "viability", "110% (inactive)"),
    ("COc1nc(N)nc2c1ncn2[C@@H]1O[C@H](CO)[C@@H](O)[C@@H]1O", "viability", "90.4% (active)"),
    ("CCc1ccc(CCOc2ccc(CC3SC(=O)NC3=O)cc2)nc1 (stereo unspecified)", "viability", "115% (inactive)"),
    ("Cc1ccc(-n2nc(C(C)(C)C)cc2NC(=O)Nc2ccc(OCCN3CCOCC3)c3ccccc23)cc1", "viability", "114% (inactive)"),
]

---

Reported cell count is given for each of the following molecules.
# Assay Details: sensitizers of A549 cells to miR-34 induction, primary screen, imaging, A549 dox-inducible miR-34, nuclei and caspase counts (AID 1347080)
# Assay Conditions: A549 miR-34 inducible, Hoechst nuclei count, 48 h; measured here: total cells without miR-34 induction
Measure Name: cell count

# Molecule, Measure Name, Endpoint Value
records = [
    ("Cn1c(=O)[nH]c2ncn(C)c2c1=O", "cell count", 9920),
    ("NS(=O)(=O)c1cc(C(=O)O)cc(N2CCCC2)c1Oc1ccccc1", "cell count", 9380),
    ("C[C@@H]1C(=O)O[C@H]2C[C@@]34[C@H]5C[C@@H](C(C)(C)C)[C@]36[C@@H](OC(=O)[C@@H]6O)O[C@@]4(C(=O)O5)[C@]21O", "cell count", 10800),
    ("CCN1C(=O)NC(c2ccccc2)C1=O (stereo not given)", "cell count", 10300),
    ("OC[C@@H](O)[C@@H](O[C@@H]1O[C@H](CO)[C@H](O)[C@H](O)[C@H]1O)[C@H](O)[C@@H](O)CO", "cell count", 9370),
    ("Nc1nc(/C(=C/CC(=O)O)C(=O)N[C@@H]2C(=O)N3C(C(=O)O)=CCS[C@H]23)cs1", "cell count", 13000),
    ("CCCCCCCCCCOc1cc2c(=O)c(C(=O)OCC)c[nH]c2cc1OCC", "cell count", 11900),
    ("COc1cc(O)c2c(c1)C(=O)c1cc(C)cc(O)c1C2=O", "cell count", 10200),
    ("C1CNCCN1", "cell count", 12400),
    ("COc1nccnc1NS(=O)(=O)c1ccc(N)cc1", "cell count", 10600),
    ("C1CCN2C[C@@H]3C[C@H](CN4CCCC[C@@H]34)[C@H]2C1", "cell count", 12500),
    ("C=C[C@H]1CN2CC[C@H]1C[C@H]2[C@H](O)c1ccnc2ccc(OC)cc12", "cell count", 9830),
    ("C/C(=C(\\CCOP(=O)(O)O)SC(=O)c1ccccc1)N(C=O)Cc1cnc(C)nc1N", "cell count", 9750),
    ("CN1CCC(Nc2ncc3ncnc(Nc4ccc(F)c(Cl)c4)c3n2)CC1", "cell count", 2330),
    ("C[C@]12CC[C@H]3[C@@H](CCC4=CC(=O)CC[C@@]43C)[C@@H]1CC[C@@H]2C(=O)CO", "cell count", 9530),
    ("CC[C@H](c1ccc(O)cc1)[C@@H](CC)c1ccc(O)cc1", "cell count", 9900),
    ("COc1ccc(-c2nc3ccc(C4=NNC(=O)CC4C)cc3[nH]2)cc1 (stereo not given)", "cell count", 6230),
    ("Nc1nc(NCC2CCC(CNS(=O)(=O)c3cccc4ccccc34)CC2)nc2ccccc12 (stereo not given)", "cell count", 338),
    ("COc1ccc(-c2cc(=O)c3c(O)c(OC)c(OC)cc3o2)cc1O", "cell count", 5680),
    ("O=c1c2ccccc2oc2ccccc12", "cell count", 7620),
    ("CN[C@H](CC(C)C)C(=O)N[C@H]1C(=O)N[C@@H](CC(N)=O)C(=O)N[C@H]2C(=O)N[C@H]3C(=O)N[C@H](C(=O)N[C@H](C(=O)O)c4cc(O)cc(O)c4-c4cc3ccc4O)[C@H](O)c3ccc(c(Cl)c3)Oc3cc2cc(c3O[C@@H]2O[C@H](CO)[C@@H](O)[C@H](O)[C@H]2O[C@H]2C[C@](C)(N)[C@H](O)[C@H](C)O2)Oc2ccc(cc2Cl)[C@H]1O", "cell count", 10400),
    ("CCOC(=O)Nc1ccc2c(c1)N(C(=O)CCN1CCOCC1)c1ccccc1S2", "cell count", 9540),
    ("CCCCCCCCCCCCCCCCCCCCCCO", "cell count", 12500),
    ("O=S1(=O)c2cccc3cccc(c23)N1CCCN1CCN(c2ccc(F)cc2)CC1", "cell count", 8140),
    ("C[n+]1cccc(C(=O)[O-])c1", "cell count", 11200),
    ("COc1cc(C(=O)NCCCCCC(=O)O)cc(OC)c1OC", "cell count", 13600),
    ("NCCCS(=O)(=O)O", "cell count", 7050),
    ("O=C(O)c1c2ccccc2cc2ccccc12", "cell count", 9890),
    ("Cc1cc2nc3ccc(=[N+](C)C)cc-3sc2cc1N", "cell count", 2500),
    ("NC(=O)Cc1cccc(C(=O)c2ccccc2)c1N", "cell count", 8200),
    ("CC(=O)N[C@@H](CC(C)C)C(=O)O", "cell count", 10300),
    ("O=C(O[C@@H]1Cc2c(O)cc(O)cc2O[C@@H]1c1cc(O)c(O)c(O)c1)c1cc(O)c(O)c(O)c1", "cell count", 5880),
    ("CC(=O)N[C@@H](CCC(N)=O)C(=O)O", "cell count", 9710),
    ("Nc1cccc2c1CN(C1CCC(=O)NC1=O)C2=O (stereo not given)", "cell count", 8190),
    ("CCCNC(C)(C)COC(=O)c1ccccc1", "cell count", 9640),
]
